- TARGET_ENTITY: μ-opioid receptor (Rattus norvegicus)
- Construct: displacement of the radioligands from the rat brain membrane preparations; from tissue; host or cells: rat brain membrane preparations
- Sequence (P33535 whole entry): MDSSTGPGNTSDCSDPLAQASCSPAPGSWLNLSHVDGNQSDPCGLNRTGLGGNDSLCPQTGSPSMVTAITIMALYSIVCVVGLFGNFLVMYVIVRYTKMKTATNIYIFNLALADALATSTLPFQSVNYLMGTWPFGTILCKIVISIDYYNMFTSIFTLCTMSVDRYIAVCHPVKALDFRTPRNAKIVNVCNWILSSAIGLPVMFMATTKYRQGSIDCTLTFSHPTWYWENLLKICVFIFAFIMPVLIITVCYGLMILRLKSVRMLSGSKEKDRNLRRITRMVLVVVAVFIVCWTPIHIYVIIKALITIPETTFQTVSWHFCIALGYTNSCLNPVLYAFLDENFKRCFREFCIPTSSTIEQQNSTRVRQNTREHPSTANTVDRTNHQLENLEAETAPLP
- EXPERIMENT_SUMMARY: biochemical
- Type: binding
Non-standard residues stand in square brackets, D forms with d. Residues, ends and D or L forms follow the SMILES beside them. dNle = CCCC[C@@H](N)C(=O)O; dNva = CCC[C@@H](N)C(=O)O; Orn = NCCC[C@H](N)C(=O)O; Dab = NCC[C@H](N)C(=O)O
MEASURED_METRIC: Ki^δ /Ki^μ
Answer as a number with no unit attached.

INSERT INTO results (compound, target_entity, measured_metric, endpoint_result) VALUES
  ('NCC[C@H](NC(=O)[C@H](Cc1ccccc1)NC(=O)[C@@H](CO)NC(=O)[C@@H](N)Cc1ccc(O)cc1)C(N)=O [BCH-2469, H-Tyr-D-Ser-Phe-A2 bu-NH2] (H-Y[dS]F[Dab]-NH2)', 'μ-opioid receptor (Rattus norvegicus)', 'Ki^δ /Ki^μ', 1071.20),
  ('CCC[C@@H](NC(=O)[C@@H](N)Cc1ccc(O)cc1)C(=O)N[C@@H](Cc1ccccc1)C(=O)N[C@@H](CCCN)C(N)=O [BCH-752, H-Tyr-D-Nva-Phe-Orn-NH2] (H-Y[dNva]F[Orn]-NH2)', 'μ-opioid receptor (Rattus norvegicus)', 'Ki^δ /Ki^μ', 1880);

Measured on μ-opioid receptor (Rattus norvegicus), NCCC[C@H](NC(=O)[C@H](Cc1ccccc1)NC(=O)[C@@H](Cc1ccccc1)NC(=O)[C@@H](N)Cc1ccc(O)cc1)C(N)=O [BCH-2457, H-Tyr-D-Phe-Phe-Orn-NH2] (H-Y[dF]F[Orn]-NH2) has a documented Ki^δ /Ki^μ of 333.37

Measured on μ-opioid receptor (Rattus norvegicus), CCCC[C@@H](NC(=O)[C@@H](N)Cc1ccc(O)cc1)C(=O)N[C@@H](Cc1ccccc1)C(=O)N[C@@H](CCCCN)C(N)=O [BCH-2205, H-Tyr-D-Nle-Phe-Lys-NH2] (H-Y[dNle]FK-NH2) has a documented Ki^δ /Ki^μ of 306

Measured on μ-opioid receptor (Rattus norvegicus), CC(C)C[C@@H](NC(=O)[C@@H](N)Cc1ccc(O)cc1)C(=O)N[C@@H](Cc1ccccc1)C(=O)N[C@@H](CCN)C(N)=O [BCH-2474, H-Tyr-D-Leu-Phe-A2 bu-NH2] (H-Y[dL]F[Dab]-NH2) has a documented Ki^δ /Ki^μ of 186.98

Measured on μ-opioid receptor (Rattus norvegicus), N=C(N)NCCC[C@H](NC(=O)[C@H](Cc1ccccc1)NC(=O)[C@@H](CCCNC(=N)N)NC(=O)[C@@H](N)Cc1ccc(O)cc1)C(N)=O [BCH-1766, H-Tyr-D-Arg-Phe-Arg-NH2] (H-Y[dR]FR-NH2) has a documented Ki^δ /Ki^μ of 121

Measured on μ-opioid receptor (Rattus norvegicus), CC(C)[C@@H](NC(=O)[C@@H](N)Cc1ccc(O)cc1)C(=O)N[C@@H](Cc1ccccc1)C(=O)N[C@@H](CCCN)C(N)=O [BCH-2458, H-Tyr-D-Val-Phe-Orn-NH2] (H-Y[dV]F[Orn]-NH2) has a documented Ki^δ /Ki^μ of 658.27

Measured on μ-opioid receptor (Rattus norvegicus), CC(C)C[C@@H](NC(=O)[C@@H](N)Cc1ccc(O)cc1)C(=O)N[C@@H](Cc1ccccc1)C(=O)N[C@@H](CCCN)C(N)=O [BCH-2459, H-Tyr-D-Leu-Phe-Orn-NH2] (H-Y[dL]F[Orn]-NH2) has a documented Ki^δ /Ki^μ of 240.10
